These data points were gathered from patent US20220056094A1.

- experimental-system: T1, high-affinity receptor IL-2Rα/β/γ on CTLL2 cells (mouse-derived cell line) (mouse, UniProt P01590 22-268; P16297 27-539; P34902 23-369)
- T1 sequence (looked up) 1: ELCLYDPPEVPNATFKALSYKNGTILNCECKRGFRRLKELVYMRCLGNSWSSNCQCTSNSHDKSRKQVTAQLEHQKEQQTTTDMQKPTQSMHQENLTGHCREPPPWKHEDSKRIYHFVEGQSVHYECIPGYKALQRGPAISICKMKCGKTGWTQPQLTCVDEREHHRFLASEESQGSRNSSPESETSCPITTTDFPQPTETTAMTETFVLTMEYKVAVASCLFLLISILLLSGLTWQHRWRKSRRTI
- T1 sequence (looked up) 2: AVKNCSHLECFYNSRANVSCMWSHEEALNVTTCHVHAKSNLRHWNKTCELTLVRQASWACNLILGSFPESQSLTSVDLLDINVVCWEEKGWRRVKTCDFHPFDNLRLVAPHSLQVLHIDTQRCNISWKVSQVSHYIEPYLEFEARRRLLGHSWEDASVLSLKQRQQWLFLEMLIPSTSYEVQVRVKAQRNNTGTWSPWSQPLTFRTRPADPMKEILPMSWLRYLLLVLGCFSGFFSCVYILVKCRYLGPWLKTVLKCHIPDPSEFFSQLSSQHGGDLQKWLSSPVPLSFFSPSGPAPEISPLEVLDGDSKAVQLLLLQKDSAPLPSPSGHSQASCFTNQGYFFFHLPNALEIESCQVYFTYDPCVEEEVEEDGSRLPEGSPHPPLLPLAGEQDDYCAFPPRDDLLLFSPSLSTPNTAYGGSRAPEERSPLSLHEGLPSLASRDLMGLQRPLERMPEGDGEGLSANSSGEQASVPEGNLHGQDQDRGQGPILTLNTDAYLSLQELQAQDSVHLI
- T1 sequence (looked up) 3: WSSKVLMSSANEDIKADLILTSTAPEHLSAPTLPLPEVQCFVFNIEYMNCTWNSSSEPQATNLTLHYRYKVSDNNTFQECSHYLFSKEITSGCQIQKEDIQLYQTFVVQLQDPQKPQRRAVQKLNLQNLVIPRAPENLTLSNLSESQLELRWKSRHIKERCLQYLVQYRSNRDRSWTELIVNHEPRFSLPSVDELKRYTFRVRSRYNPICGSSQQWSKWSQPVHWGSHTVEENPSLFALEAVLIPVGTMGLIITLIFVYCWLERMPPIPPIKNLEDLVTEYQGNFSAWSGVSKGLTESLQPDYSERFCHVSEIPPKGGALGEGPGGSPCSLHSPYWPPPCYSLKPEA
- assay-method-text: cell-based or functional assay
The following binders are shown together with reported relative biological activity (CTLL2 cell proliferation) values.
Quick reminder: number only, in %, skip the unit.

{"binder": "IL-2-07 (F42A/Y45A) (ligand, The entry already carries the mutations and C125A and begins with M. Made in E. coli) MAPTSSSTKKTQLQLEHLLLDLQMILNGINNYKNPKLTRMLTAKFAMPKKATELKHLQCLEEELKPLEEVLNLAQSKNFHLRPRDLISNINVIVLELKGSETTFMCEYADETATIVEFLNRWITFAQSIISTLT", "unit-abbreviation": "%", "observed": 4}
{"binder": "IL-2-06 (… at positions 29-44 mutated into QSMHIDATL) (ligand, The entry already carries the replacement and C125A and begins with M. Made in E. coli) MAPTSSSTKKTQLQLEHLLLDLQMILNGIQSMHIDATLYMPKKATELKHLQCLEEELKPLEEVLNLAQSKNFHLRPRDLISNINVIVLELKGSETTFMCEYADETATIVEFLNRWITFAQSIISTLT", "unit-abbreviation": "%", "observed": 4}

Return reported relative biological activity (CTLL2 cell proliferation); argument: IL-2-08 (F42A/L72G) (ligand, The entry already carries the mutations and C125A and begins with M. Made in E. coli) MAPTSSSTKKTQLQLEHLLLDLQMILNGINNYKNPKLTRMLTAKFYMPKKATELKHLQCLEEELKPLEEVLNGAQSKNFHLRPRDLISNINVIVLELKGSETTFMCEYADETATIVEFLNRWITFAQSIISTLT
7
